- System: Fibroblast
- assay_procedure: Multiplex assay against human fibroblast
- Format: toxicity, cell-based
- measurement_setup: 12 h, 10 µM, compound concentration 10 uM, replicate 1
Overview of recorded Total Cell Count for various molecules
Lab note: jot the number down without any unit.

Would you please look over these solved cases?
1) C=CC(=O)Nc1cccc(Oc2nc(Nc3ccc(N4CCN(C)CC4)cc3OC)ncc2Cl)c1 | 237
2) CNC(=O)Nc1ccc2c(c1)[C@@]1(CC2)OC(=O)N(CC(=O)N(Cc2ccc(F)cc2)[C@@H](C)C(F)(F)F)C1=O | 160
3) Cc1nc(N2CC[C@H](O)C2)ncc1-c1cc(C(F)(F)F)cc2[nH]ncc12 | 218

Attention now turns to another entry.
Q: GET /values?readout=Total Cell Count&item= "COc1ccccc1CN[C@H]1C2CCN(CC2)[C@H]1C(c1ccccc1)c1ccccc1"
Result: 129

###

Population Membrane Permeable-Phenotype (%) for assorted compounds
- Test system: HEK-293T
- assay_procedure: Multiplex assay against HEK293T
- Format: toxicity, cell-based
- measurement_setup: human, 12 h, 1 µM, compound concentration 1 uM, replicate 1
Express it in %; write the number only.

Answered cases to consult:
1. Cc1nc(N2CC[C@H](O)C2)ncc1-c1cc(C(F)(F)F)cc2[nH]ncc12 | 3
2. O=c1cc(N2CCOCC2)oc2c(-c3cccc4c3sc3ccccc34)cccc12 | 3
3. Cc1c[nH]c2nccc(Oc3c(F)cc(Nc4cc(Cl)nc(N)n4)cc3F)c12 [BAY-549] | 0
4. CC(C)NC(=O)N1CC[C@H](NC2=Nc3cc(F)ccc3N(CC(F)F)c3ccc(Cl)cc32)C1 | 4

Q: Query Population Membrane Permeable-Phenotype (%) on HEK-293T for CCc1nn(CCCN2CCN(c3cccc(Cl)c3)CC2)c(=O)n1CCOc1ccccc1.Cl [NEFAZODONE HYDROCHLORIDE]
Result: 7

###

- Test system: Fibroblast
- assay_procedure: Multiplex assay against human fibroblast
- Type: toxicity, cell-based
- measurement_setup: 48 h, 10 µM, compound concentration 10 uM, replicate 2
Examples of molecules with documented Population Membrane Permeable-Phenotype (%) follow.
Write down the numeric answer in % and omit the unit.

1. Cc1ccc2c(c1)c1c(n2CCc2ccc(C)nc2)CCN(C)C1 [LATREPIRDINE] | 14
2. CNC(=O)Nc1ccc(-c2nc(N3CC4CCC(C3)O4)c3cnn(C4CCC5(CC4)OCCO5)c3n2)cc1 | 18
3. CC(C)c1noc(N2CCC(COc3ccc(-c4ccc(S(C)(=O)=O)cc4)nc3)CC2)n1 | 28

--- query ---
Q: Returns the measured Population Membrane Permeable-Phenotype (%) for the input molecule. Input: COc1cc2ncn(-c3cc(OCc4ccccc4C(F)(F)F)c(C(N)=O)s3)c2cc1OC [GW843682X]
Result: 6

###

Catalogue of Population Fragmented Nuclei (%) readings, one per entry.
- System: HEK-293T
- assay_procedure: Multiplex assay against HEK293T
- Format: toxicity, cell-based
- measurement_setup: human, 24 h, 1 µM, compound concentration 1 uM, replicate 1
State the answer as a number, implicitly in %.

Worked examples, 5 compounds total:
1) CN1CCN(Cc2ccc(Nc3ncc(Cl)c(Nc4ccccc4S(=O)(=O)N(C)C)n3)cc2)CC1 [DUBERMATINIB] | 15
2) Cc1cccc(CN2CCN(C(c3ccccc3)c3ccc(Cl)cc3)CC2)c1.Cl.Cl (stereo not drawn) | 11
3) CC(C)(C)NC[C@H](O)COc1nsnc1N1CCOCC1 [TIMOLOL] | 8
4) CC(C)Oc1ccccc1C(=O)Nc1ccccc1C(=O)Nc1cccc(S(=O)(=O)C(F)(F)F)c1 | 16
5) COc1ccc(-c2ccc3ncc4c(c3c2)n(-c2ccc(N3CCNCC3)c(C(F)(F)F)c2)c(=O)n4C)cn1.O=C(O)/C=C\C(=O)O [BGT-226] | 27

Q: Quick one: Population Fragmented Nuclei (%) of CCCSc1nc(N[C@@H]2C[C@H]2c2ccc(F)c(F)c2)c2nnn([C@@H]3C[C@H](OCCO)[C@@H](O)[C@H]3O)c2n1 [TICAGRELOR] ?
Result: 23

Q: What do you get for "C=CC(=O)Nc1cccc(Oc2nc(Nc3ccc(N4CCN(C)CC4)cc3OC)ncc2Cl)c1" ?
Result: 23

Q: Param item: CCc1nn(CCCN2CCN(c3cccc(Cl)c3)CC2)c(=O)n1CCOc1ccccc1.Cl [NEFAZODONE HYDROCHLORIDE]
Result: 8

###

Below, each entry is listed alongside its reported Population Apoptotic (%).
- System: U2OS
- assay_procedure: Multiplex assay against U2OS
- Type: toxicity, cell-based
- measurement_setup: human, 12 h, 10 µM, compound concentration 10 uM, replicate 2
Please answer in the form of a number followed by its unit of measurement.

Examples with their reported Population Apoptotic (%) follow.
1. CC(C)c1noc(N2CCC(COc3ccc(-c4ccc(S(C)(=O)=O)cc4)nc3)CC2)n1 | 42%
2. COC(=O)C1=C(C)NC(C)=C(C(=O)OCCCN2CCC(c3ccccc3)(c3ccccc3)CC2)[C@H]1c1cccc([N+](=O)[O-])c1 | 76%
3. O=c1cc(N2CCOCC2)oc2c(-c3cccc4c3sc3ccccc34)cccc12 | 31%
4. Cc1ccc(C)c(Oc2ccncc2C(=O)N2CCN(C3CC3)c3ccccc32)c1 | 33%

Now, please, on to the next compound.
Q: Field request: Population Apoptotic (%) | item: "CC(C)OC(=O)N1CCC(Oc2ncnc3c2cnn3-c2ccc(S(C)(=O)=O)cc2F)CC1"
Result: 18%

###

- System: U2OS
- assay_procedure: Multiplex assay against U2OS
- Format: toxicity, cell-based
- measurement_setup: human, 12 h, 1 µM, compound concentration 1 uM, replicate 2
Entries and their Population Apoptotic (%) values follow.
Give the value in % but do not write % after it.

Solved cases below.
1) C=CC(=O)Nc1cccc(Sc2nc(Nc3ccc(N4CCN(C)CC4)cc3)ncc2Cl)c1 | 95
2) COc1cc2ncn(-c3cc(OCc4ccccc4C(F)(F)F)c(C(N)=O)s3)c2cc1OC [GW843682X] | 50
3) COc1ccc(-c2ccc3ncc4c(c3c2)n(-c2ccc(N3CCNCC3)c(C(F)(F)F)c2)c(=O)n4C)cn1.O=C(O)/C=C\C(=O)O | 81
4) Cl.O=C(O)c1cc(-c2ccc(C3CCNCC3)cc2)c2ccc(-c3ccc(C(F)(F)F)cc3)cc2c1 | 50
5) O=c1cc(N2CCOCC2)oc2c(-c3cccc4c3sc3ccccc34)cccc12 | 100

Q: I'd like to know its Population Apoptotic (%). The molecule in question is O=C(c1cc2c(cc1F)OC(c1ccc(F)cc1)(c1ccc(Cl)cc1Cl)O2)N1CCOCC1 (configuration not stated)
Result: 50

Q: Ok, now "CCc1ccc(OCc2ccccc2C(=O)Nc2ccc3nc(C)cc(N)c3c2)cc1.Cl"
Result: 71

Q: And "CC(C)NC(=O)N1CC[C@H](NC2=Nc3cc(F)ccc3N(CC(F)F)c3ccc(Cl)cc32)C1" ?
Result: 33

Q: "C=CC(=O)Nc1cccc(Oc2nc(Nc3ccc(N4CCN(C)CC4)cc3OC)ncc2Cl)c1" ?
Result: 73

###

This section presents compounds with their documented Population Apoptotic (%) values.
- System: Fibroblast
- assay_procedure: Multiplex assay against human fibroblast
- Assay type: toxicity, cell-based
- measurement_setup: 24 h, 10 µM, compound concentration 10 uM, replicate 2
Your answer should be a plain number; it is taken to be in %.

Below: 6 compounds and their reported Population Apoptotic (%).
1) C=CC(=O)Nc1cccc(Sc2nc(Nc3ccc(N4CCN(C)CC4)cc3)ncc2Cl)c1 | 0
2) COc1cc(Nc2nccc(-c3cnn4nc(OC)ccc34)n2)cc(C(F)(F)F)c1 | 50
3) COc1cc2ncn(-c3cc(OCc4ccccc4C(F)(F)F)c(C(N)=O)s3)c2cc1OC [GW843682X] | 50
4) O=C(c1cc2c(cc1F)OC(c1ccc(F)cc1)(c1ccc(Cl)cc1Cl)O2)N1CCOCC1 (centres undefined) | 66
5) Cc1ccccc1C(c1ccccc1C)N1C2CCC1CC(O)(c1ccccc1)C2 (centres undefined) | 50
6) CCc1ccc(OCc2ccccc2C(=O)Nc2ccc3nc(C)cc(N)c3c2)cc1.Cl | 70

Q: Which Population Apoptotic (%) value belongs to CCCSc1nc(N[C@@H]2C[C@H]2c2ccc(F)c(F)c2)c2nnn([C@@H]3C[C@H](OCCO)[C@@H](O)[C@H]3O)c2n1 [TICAGRELOR] ?
Result: 83

Q: Would you kindly repeat that for "Cc1nc(N2CC[C@H](O)C2)ncc1-c1cc(C(F)(F)F)cc2[nH]ncc12" ?
Result: 83

Q: Also "CC(C)OC(=O)N1CCC(Oc2ncnc3c2cnn3-c2ccc(S(C)(=O)=O)cc2F)CC1" ?
Result: 33

###

- System: HEK-293T
- assay_procedure: Multiplex assay against HEK293T;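 for Population Tubulin-Different-Phenotype (%): share of the cells with healthy nuclei that show this phenotype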
- Assay type: toxicity, cell-based
- measurement_setup: human, 24 h, 10 µM, compound concentration 10 uM, replicate 2
Decide using Population Tubulin-Different-Phenotype (%): a value greater than or equal to 20% is MET, a smaller one is NOT MET.

Take a look at these entries with their results.
1) Cc1nc(N2CC[C@H](O)C2)ncc1-c1cc(C(F)(F)F)cc2[nH]ncc12 | NOT MET
2) C=CC(=O)Nc1cccc(Sc2nc(Nc3ccc(N4CCN(C)CC4)cc3)ncc2Cl)c1 | NOT MET
3) Cc1ccc2c(c1)c1c(n2CCc2ccc(C)nc2)CCN(C)C1 [LATREPIRDINE] | MET
4) CNC(=O)Nc1ccc2c(c1)[C@@]1(CC2)OC(=O)N(CC(=O)N(Cc2ccc(F)cc2)[C@@H](C)C(F)(F)F)C1=O | NOT MET
5) COc1ccccc1CN[C@H]1C2CCN(CC2)[C@H]1C(c1ccccc1)c1ccccc1 | MET
6) COc1cc(Nc2nccc(-c3cnn4nc(OC)ccc34)n2)cc(C(F)(F)F)c1 | MET
7) CC(C)(C)NC[C@H](O)COc1nsnc1N1CCOCC1 | NOT MET
8) CC(C)c1noc(N2CCC(COc3ccc(-c4ccc(S(C)(=O)=O)cc4)nc3)CC2)n1 | MET

Please turn your attention to the following entry.
Q: Decide: Population Tubulin-Different-Phenotype (%) of Cc1cccc(CN2CCN(C(c3ccccc3)c3ccc(Cl)cc3)CC2)c1.Cl.Cl (centres undefined) >= 20%?
Result: MET
